Below, each entry is listed with its recorded EC50.
System: Phytophthora capsici
Experiment: Antifungal activity against Phytophthora capsici assessed as mycelial growth inhibition after 2 to 6 days
Format: functional
Settings: read-out: ED50 (the source's name)
Just the number in mg/L, nothing appended.

# count of solved cases: 6
INSERT INTO results (compound, observed_result) VALUES
  ('O=S(=O)(Nc1ccccc1)c1ccccc1 [PHENYL(PHENYLSULFONYL)AMINE]', 66.6),
  ('O=[N+]([O-])c1cccc(S(=O)(=O)Nc2ccc([N+](=O)[O-])cc2Cl)c1', 7),
  ('O=[N+]([O-])c1cccc(S(=O)(=O)Nc2ccc(F)c(C(F)(F)F)c2)c1', 60.8),
  ('O=[N+]([O-])c1ccc(NS(=O)(=O)c2ccccc2)cc1', 10.3),
  ('O=[N+]([O-])c1cccc(S(=O)(=O)Nc2ccc([N+](=O)[O-])cc2C(F)(F)F)c1', 233),
  ('O=[N+]([O-])c1ccc(NS(=O)(=O)c2ccccc2)c(C(F)(F)F)c1', 18.5);

Prompt: EC50 for O=S(=O)(Nc1ccc(F)c(C(F)(F)F)c1)c1ccccc1 ?
Response: 5.6

Prompt: Please do the same for O=[N+]([O-])c1ccc(NS(=O)(=O)c2ccccc2)c(Cl)c1 as well.
Response: 9

Prompt: Try the compound O=S(=O)(Nc1ccc(C(F)(F)F)cc1)c1ccccc1
Response: 14.6
